Value source: ChEMBL document CHEMBL3632508

Listed molecules paired with reported Activity
Molecular target: Isocitrate dehydrogenase [NADP] cytoplasmic (Homo sapiens) (UniProt O75874)
Sequence (O75874 whole entry): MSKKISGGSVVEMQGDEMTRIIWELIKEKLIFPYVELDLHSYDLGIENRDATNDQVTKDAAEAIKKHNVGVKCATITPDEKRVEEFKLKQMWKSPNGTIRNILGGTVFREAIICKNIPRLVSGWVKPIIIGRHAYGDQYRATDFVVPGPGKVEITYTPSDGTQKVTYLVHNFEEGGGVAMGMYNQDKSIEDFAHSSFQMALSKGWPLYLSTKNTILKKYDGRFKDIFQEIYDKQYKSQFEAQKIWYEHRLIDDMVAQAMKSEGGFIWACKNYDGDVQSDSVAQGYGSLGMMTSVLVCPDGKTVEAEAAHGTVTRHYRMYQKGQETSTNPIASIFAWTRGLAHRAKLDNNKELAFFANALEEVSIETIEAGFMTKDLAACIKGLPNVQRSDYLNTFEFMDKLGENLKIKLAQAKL
Assay: Inhibition of human IDH1 expressed in IPTG-induced Escherichia coli BL21 cells assessed as reduction of NADP+ to NADPH after 5 mins by spectrophotometry
Design: concentration or dose not given beside the values
readout: Activity (%)

molecule=O=c1cc(-c2ccc(O)c(O)c2)oc2cc(O)cc(O)c12 tgt="Isocitrate dehydrogenase [NADP] cytoplasmic (Homo sapiens) (UniProt O75874)" readout=Activity valueunits=% observedresult=96.8
molecule=COc1ccc(-c2oc3c(CC=C(C)C)c(O[C@@H]4O[C@H](CO)[C@@H](O)[C@H](O)[C@H]4O)cc(O)c3c(=O)c2O[C@@H]2O[C@@H](C)[C@H](O)[C@@H](O)[C@H]2O)cc1 tgt="Isocitrate dehydrogenase [NADP] cytoplasmic (Homo sapiens) (UniProt O75874)" readout=Activity valueunits=% observedresult=90.4
molecule=O=C1C[C@@H](c2ccc(O)cc2)Oc2cc(O)cc(O)c21 tgt="Isocitrate dehydrogenase [NADP] cytoplasmic (Homo sapiens) (UniProt O75874)" readout=Activity valueunits=% observedresult=102
molecule=C/C=C(/C)C(=O)O[C@H]1Cc2c(cc3oc(C)cc(=O)c3c2O)OC1(C)C tgt="Isocitrate dehydrogenase [NADP] cytoplasmic (Homo sapiens) (UniProt O75874)" readout=Activity valueunits=% observedresult=97.8
molecule=C=C1CC[C@@H]2[C@](C)(CCC[C@]2(C)C(=O)O)[C@H]1CCc1ccoc1 tgt="Isocitrate dehydrogenase [NADP] cytoplasmic (Homo sapiens) (UniProt O75874)" readout=Activity valueunits=% observedresult=100
molecule=CC1(C)CC[C@]2(C(=O)O)CC=C3[C@]4(C)CC[C@H]5C(C)(C)[C@@H](O)CC[C@]5(C)[C@H]4CC[C@@]3(C)[C@@H]2C1 tgt="Isocitrate dehydrogenase [NADP] cytoplasmic (Homo sapiens) (UniProt O75874)" readout=Activity valueunits=% observedresult=103
molecule=O=C(/C=C/c1ccc(O)cc1)c1ccc(O)cc1O tgt="Isocitrate dehydrogenase [NADP] cytoplasmic (Homo sapiens) (UniProt O75874)" readout=Activity valueunits=% observedresult=94.6
molecule=CC(C)=CCc1c(O)c(CC=C(C)C)c2oc3c(O)ccc(O)c3c(=O)c2c1O tgt="Isocitrate dehydrogenase [NADP] cytoplasmic (Homo sapiens) (UniProt O75874)" readout=Activity valueunits=% observedresult=89.9
molecule=C[C@H]1[C@H](C)CC[C@]2(C)CC[C@]3(C)C(=CC[C@@H]4[C@@]5(C)CC[C@H](O)C(C)(C)[C@@H]5CC[C@]43C)[C@H]12 tgt="Isocitrate dehydrogenase [NADP] cytoplasmic (Homo sapiens) (UniProt O75874)" readout=Activity valueunits=% observedresult=105
molecule=COc1c(O)cc2oc3cc(O)c4c(c3c(=O)c2c1CC=C(C)C)OC(C)(C)CC4 tgt="Isocitrate dehydrogenase [NADP] cytoplasmic (Homo sapiens) (UniProt O75874)" readout=Activity valueunits=% observedresult=100
molecule="COc1c2c(cc3oc(C)cc(=O)c13)OC(C(C)(C)O)C2 (stereo not given)" tgt="Isocitrate dehydrogenase [NADP] cytoplasmic (Homo sapiens) (UniProt O75874)" readout=Activity valueunits=% observedresult=103
molecule=C[C@@H](C(=O)O)[C@@]1(C)CC[C@H]2[C@@](C)(CC[C@@]3(C)[C@@H]4CC(C)(C)CC[C@]4(C)CC[C@]23C)[C@@H]1CC(=O)O tgt="Isocitrate dehydrogenase [NADP] cytoplasmic (Homo sapiens) (UniProt O75874)" readout=Activity valueunits=% observedresult=108
molecule=O=c1cc(-c2ccccc2)oc2cc(O)cc(O)c12 tgt="Isocitrate dehydrogenase [NADP] cytoplasmic (Homo sapiens) (UniProt O75874)" readout=Activity valueunits=% observedresult=97.6
molecule=O=c1c(O)c(-c2ccc(O)cc2)oc2cc(O)cc(O)c12 tgt="Isocitrate dehydrogenase [NADP] cytoplasmic (Homo sapiens) (UniProt O75874)" readout=Activity valueunits=% observedresult=104
molecule=C[C@H]1C(=O)CC[C@@H]2[C@]1(C)CC[C@H]1[C@@]2(C)CC[C@@]2(C)[C@@H]3CC(C)(C)CC[C@]3(C)CC[C@]12C tgt="Isocitrate dehydrogenase [NADP] cytoplasmic (Homo sapiens) (UniProt O75874)" readout=Activity valueunits=% observedresult=104
molecule=CC1(C)CC[C@]2(C)CC[C@]3(C)C(=CC[C@@H]4[C@@]5(C)[C@@H](O)C[C@H](O)C(C)(C)[C@@H]5CC[C@]43C)[C@@H]2C1 tgt="Isocitrate dehydrogenase [NADP] cytoplasmic (Homo sapiens) (UniProt O75874)" readout=Activity valueunits=% observedresult=99.2
molecule=CCCCCCCCCCCCC/C=C1/C(=O)O[C@H](C)[C@@H]1O tgt="Isocitrate dehydrogenase [NADP] cytoplasmic (Homo sapiens) (UniProt O75874)" readout=Activity valueunits=% observedresult=111
molecule=O=C(O[C@H]1[C@@H]2C=CO[C@@H](O[C@@H]3O[C@H](CO)[C@@H](O)[C@H](O)[C@H]3O)[C@@H]2[C@@]2(CO)O[C@@H]12)c1ccc(O)c(O)c1 tgt="Isocitrate dehydrogenase [NADP] cytoplasmic (Homo sapiens) (UniProt O75874)" readout=Activity valueunits=% observedresult=88.3
molecule=CC1(C)CC[C@]2(C)CC[C@]3(C)C(=CC[C@@H]4[C@@]5(C)CC[C@H](O)C(C)(C)[C@@H]5[C@H](O)C[C@]43C)[C@@H]2C1 tgt="Isocitrate dehydrogenase [NADP] cytoplasmic (Homo sapiens) (UniProt O75874)" readout=Activity valueunits=% observedresult=102
molecule=COc1ccc(C(=O)O[C@H]2[C@@H]3C=CO[C@@H](O[C@@H]4O[C@H](CO)[C@@H](O)[C@H](O)[C@H]4O)[C@@H]3[C@@]3(CO)O[C@@H]23)cc1OC tgt="Isocitrate dehydrogenase [NADP] cytoplasmic (Homo sapiens) (UniProt O75874)" readout=Activity valueunits=% observedresult=107
molecule=COc1c2c(cc3oc(CO[C@@H]4O[C@H](CO)[C@@H](O)[C@H](O)[C@H]4O)cc(=O)c13)O[C@H](C(C)(C)O)C2 tgt="Isocitrate dehydrogenase [NADP] cytoplasmic (Homo sapiens) (UniProt O75874)" readout=Activity valueunits=% observedresult=96.8
molecule=C=C1CC[C@@H]2[C@H]([C@H]3[C@H]1CC[C@]3(C)O)C2(C)C tgt="Isocitrate dehydrogenase [NADP] cytoplasmic (Homo sapiens) (UniProt O75874)" readout=Activity valueunits=% observedresult=106
molecule=CC(C)=CCC[C@](C)(O[C@@H]1O[C@H](CO[C@@H]2O[C@H](CO)[C@@H](O)[C@H](O)[C@H]2O)[C@@H](O)[C@H](O)[C@H]1O)[C@H]1CC[C@]2(C)[C@@H]1[C@H](O)C[C@@H]1[C@@]3(C)CC[C@H](O[C@@H]4O[C@H](CO)[C@@H](O)[C@H](O)[C@H]4O[C@@H]4O[C@H](CO)[C@@H](O)[C@H](O)[C@H]4O)C(C)(C)[C@@H]3CC[C@]12C tgt="Isocitrate dehydrogenase [NADP] cytoplasmic (Homo sapiens) (UniProt O75874)" readout=Activity valueunits=% observedresult=117
molecule=CC1(C)CC[C@]2(C)CC=C3[C@]4(C)CC[C@H]5C(C)(C)[C@@H](O)CC[C@]5(C)[C@H]4CC[C@@]3(C)[C@@H]2C1 tgt="Isocitrate dehydrogenase [NADP] cytoplasmic (Homo sapiens) (UniProt O75874)" readout=Activity valueunits=% observedresult=106
molecule=C[C@H]1[C@@H](O)CC[C@@H]2[C@]1(C)CC[C@H]1[C@@]2(C)CC[C@@]2(C)[C@@H]3CC(C)(C)CC[C@]3(C)CC[C@]12C tgt="Isocitrate dehydrogenase [NADP] cytoplasmic (Homo sapiens) (UniProt O75874)" readout=Activity valueunits=% observedresult=109
